Entries and their kon
Molecular target: T1, Human CD47-C33G (human, UniProt Q08722 19-135)
T1 construct: also called CD47 mutein with C33G mutation
T1 sequence (Q08722 19-135 C33G limits assumed): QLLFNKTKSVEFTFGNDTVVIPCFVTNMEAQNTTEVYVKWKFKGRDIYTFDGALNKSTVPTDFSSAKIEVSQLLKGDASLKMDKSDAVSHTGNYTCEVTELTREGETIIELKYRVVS
Test: SPR, IgG captured, CD47 in flow; exp 3;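 note: other target is a CD47 mutein carrying C33G, used to obtain true monovalent affinity, with kon and koff fitted from SPR binding curves and KD derived from both rates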
Respond numerically; units are M⁻¹ s⁻¹ and should not be typed.

// below: answered binders
>  <binder>
108VH10.Mi / 108VL10.Me (antibody, V domains shown, 4D5-framework series; constant regions not restated for this series; also called VH10.Mi VL10.Me) VH: EVQLVESGGGLVQPGGSLRLSCAASGFTFSHHWIHWVRQAPGKGLEWVAMIDASDSETRLSDKFKDRFTISADTSKNTAYLQMNSLRAEDTAVYYCSRLGRYYFDYWGQGTLVTVSS VL: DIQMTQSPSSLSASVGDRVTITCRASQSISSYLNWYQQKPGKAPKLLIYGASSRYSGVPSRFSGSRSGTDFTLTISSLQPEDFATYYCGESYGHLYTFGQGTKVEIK

>  <unit_symbol>
M⁻¹ s⁻¹

>  <kon>
230000

$$$$
>  <binder>
108VH10.Mk / 108VL10.Me (antibody, V domains shown, 4D5-framework series; also called VH10.Mk VL10.Me) VH: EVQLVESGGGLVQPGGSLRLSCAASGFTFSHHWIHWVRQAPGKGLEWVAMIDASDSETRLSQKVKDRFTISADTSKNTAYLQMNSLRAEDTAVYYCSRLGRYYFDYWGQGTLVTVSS VL: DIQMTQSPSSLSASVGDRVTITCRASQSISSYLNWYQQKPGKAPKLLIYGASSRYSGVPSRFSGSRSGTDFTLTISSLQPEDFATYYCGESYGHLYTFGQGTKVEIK

>  <unit_symbol>
M⁻¹ s⁻¹

>  <kon>
210000

$$$$

// next entry
stdin: GET /values?readout=kon&item= 108VH10 / 108VL10.M1 (antibody, V domains shown, 4D5-framework series; also called VH10 VL10.M1; straight-graft antibody) VH: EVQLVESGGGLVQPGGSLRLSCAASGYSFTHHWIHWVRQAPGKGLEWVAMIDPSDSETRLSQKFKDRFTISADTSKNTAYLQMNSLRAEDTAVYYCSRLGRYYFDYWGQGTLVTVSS VL: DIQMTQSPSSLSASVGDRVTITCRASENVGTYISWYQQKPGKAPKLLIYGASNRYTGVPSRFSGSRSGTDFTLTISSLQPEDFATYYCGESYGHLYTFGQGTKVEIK
stdout: 85000
